- System: L3 animals
- assayNotes: Abnormal locomotory behaviour of L3 animals on solid agar (extended SAR)
- Format: in vivo, Caenorhabditis elegans
- runConditions: 60 uM, 1 h exposure, L3, mean of 4 replicates
readoutType: % any phene 1 h (conc.) 60 (%)
Could you give me the number in %? Just the number is fine.

[Q] Item under review: N#Cc1ccc(N2CCN(CC3CCCCC3)CC2)cc1 [Ik] . Reported % any phene 1 h (conc.) 60?
[A] 91.7

[Q] Then what about the molecule N#Cc1ccc(N2CCN(CC3CCCC3)CC2)cc1 [Ip] ?
[A] 91.3

[Q] Same question for O=[N+]([O-])c1ccc(N2CCN(CC3CC=CCC3)CC2)cc1 (stereo not shown) [Ie] please.
[A] 94.2

[Q] // next record c1ccc(N2CCN(CC3CCCCC3)CC2)cc1 [Ii]
[A] 84.2

[Q] Also check O=[N+]([O-])c1ccc(N2CCN(Cc3ccccc3)CC2)cc1 [Im]
[A] 44.2

[Q] Follow-up item: O=[N+]([O-])c1ccc(N2CCN(CC3CC3)CC2)cc1 [Iq]
[A] 32.5

[Q] What would you report for O=[N+]([O-])c1ccc(N2CCN(CC3CC4C=CC3C4)CC2)cc1 (stereo not shown) [Compound Id] ?
[A] 95.8
